Exercise: state measured selectivity ratio for each of the compounds provided.
- assay-overview: Therapeutic index, ratio of CC50 for human rhabdomyosarcoma cells to EC50 for EV71 BC08 GU475127 infected in human rhabdomyosarcoma cells
- condition-notes: read-out: Ratio CC50/EC50

{"smiles-record": "CN(C)C(=O)Oc1ccc2c(=O)n(Cc3cccc(NS(=O)(=O)NCCC#N)c3F)c(=O)oc2c1", "value": "> 25"}

Could you now look at the following compound, please?
## Task Look up selectivity ratio: CNS(=O)(=O)Nc1cccc(Cn2c(=O)oc3cc(OC(=O)N(C)C)ccc3c2=O)c1F
## Result > 98

----------
- target-or-system: Serine/threonine-protein kinase B-raf (Homo sapiens, UniProt P15056, Y340D/Y341D)
- Sequence (P15056 whole entry, looked up, stated change not applied): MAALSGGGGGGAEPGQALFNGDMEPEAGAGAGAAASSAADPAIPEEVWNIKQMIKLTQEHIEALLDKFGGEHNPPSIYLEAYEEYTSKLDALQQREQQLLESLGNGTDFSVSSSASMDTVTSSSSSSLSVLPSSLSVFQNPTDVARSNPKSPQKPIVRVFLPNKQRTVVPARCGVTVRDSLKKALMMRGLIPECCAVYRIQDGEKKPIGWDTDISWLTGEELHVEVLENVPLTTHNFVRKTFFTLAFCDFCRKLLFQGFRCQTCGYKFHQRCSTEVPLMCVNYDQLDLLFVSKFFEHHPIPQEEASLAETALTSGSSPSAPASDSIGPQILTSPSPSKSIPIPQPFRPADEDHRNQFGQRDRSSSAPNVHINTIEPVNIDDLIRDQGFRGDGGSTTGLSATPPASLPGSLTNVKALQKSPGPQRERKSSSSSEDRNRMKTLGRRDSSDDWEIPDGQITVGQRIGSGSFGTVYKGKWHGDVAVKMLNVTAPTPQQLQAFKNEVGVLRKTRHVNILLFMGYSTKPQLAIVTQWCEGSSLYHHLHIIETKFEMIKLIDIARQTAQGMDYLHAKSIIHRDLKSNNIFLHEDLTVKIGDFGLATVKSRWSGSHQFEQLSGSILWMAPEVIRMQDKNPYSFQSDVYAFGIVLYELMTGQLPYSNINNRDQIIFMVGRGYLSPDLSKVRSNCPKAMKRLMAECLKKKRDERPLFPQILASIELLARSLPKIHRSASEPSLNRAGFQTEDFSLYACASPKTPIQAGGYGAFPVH
recorded-endpoint: IC50 (µM)
One number for each entry, in µM.

{"smiles-record": "CN(C)C(=O)Oc1ccc2c(=O)n(Cc3cccc(NS(C)(=O)=O)c3)c(=O)oc2c1", "target-or-system": "Serine/threonine-protein kinase B-raf (Homo sapiens, UniProt P15056, Y340D/Y341D)", "IC50 [µM]": 5.92}

Could you now look at the following molecule, please?
## Task Look up IC50: CCS(=O)(=O)Nc1cccc(Cn2c(=O)oc3cc(OC(=O)N(C)C)ccc3c2=O)c1F
## Result 0.2
